- STUDY TARGET: p56lck GST-SH2 (lck SH2 domain) (Homo sapiens, UniProt P06239)
- Construct: GST (N)
- Sequence (P06239 127-224 limits assumed): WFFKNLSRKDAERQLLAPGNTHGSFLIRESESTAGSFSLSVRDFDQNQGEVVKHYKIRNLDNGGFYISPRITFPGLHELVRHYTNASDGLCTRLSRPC
- ASSAY OVERVIEW: Receptor-ligand equilibrium binding constants by surface plasmon resonance (biosensor), lck SH2 domain
- PARTICULARS: Table 1, compounds of formula (II)
pKd: −log10 of the molar value.
Classify on pKd using Low (below 5), Mid (5 to below 6), High (6 or more)

>  <COMPOUND>
COc1ccc(Cn2ccc(C)c(NC(=O)C(Cc3ccc(C4(C(=O)O)CCCC4)cc3)NC(=O)Cc3ccc4ccccc4c3)c2=O)cc1 (racemic) [Compound 108]

>  <CLASSIFICATION>
Mid

$$$$
>  <COMPOUND>
CCOc1ccc(Cn2ccc(C)c(NC(=O)C(Cc3ccc(C(C)(C)C(=O)O)cc3)NC(=O)C(C)(C)c3ccc4ccccc4c3)c2=O)cc1 (stereo not shown) [Compound 139]

>  <CLASSIFICATION>
Mid

$$$$
>  <COMPOUND>
Cc1ccn(Cc2ccc(C(C)C)cc2)c(=O)c1NC(=O)[C@H](Cc1ccc(C(C)(C)C(=O)O)cc1)NC(=O)Cc1cccc2ccccc12 [Compound 101]

>  <CLASSIFICATION>
Mid

$$$$
>  <COMPOUND>
COc1ccc(Cn2ccc(C)c(NC(=O)[C@H](Cc3ccc(NC(=O)C(=O)O)cc3)NC(=O)Cc3ccccc3[N+](=O)[O-])c2=O)cc1 [Compound 34]

>  <CLASSIFICATION>
Mid

$$$$
>  <COMPOUND>
COc1ccc(Cn2ccc(C)c(NC(=O)[C@H](Cc3ccc(NC(=O)C(=O)O)cc3)NC(=O)Cc3ccc(-n4c(C)ccc4C)cc3)c2=O)cc1 [Compound 39]

>  <CLASSIFICATION>
Mid

$$$$
>  <COMPOUND>
Cc1ccn(CCCc2ccccc2)c(=O)c1NC(=O)C(Cc1ccc(C(C)(C)C(=O)O)cc1)NC(=O)Cc1cccc2ccccc12 (stereo not shown) [Compound 182]

>  <CLASSIFICATION>
Mid

$$$$
>  <COMPOUND>
COCCOCn1ccc(C)c(NC(=O)C(Cc2ccc(C(C)(C)C(=O)O)cc2)NC(=O)C(C)(C)c2ccc3ccccc3c2)c1=O (stereo not shown) [Compound 190]

>  <CLASSIFICATION>
Low

$$$$
>  <COMPOUND>
COc1ccc(Cn2ccc(C)c(NC(=O)C(Cc3ccc(C(C)(C)C(=O)O)cc3)NC(=O)C(F)(F)F)c2=O)cc1 (stereo not shown) [Compound 176]

>  <CLASSIFICATION>
Mid

$$$$

[Q] In plain terms, what class is COc1ccc(Cn2cc(Br)c(C)c(NC(=O)[C@H](Cc3ccc(C(C)(C)C(=O)O)cc3)NC(=O)C(C)(C)c3ccc(C(F)(F)F)cc3)c2=O)cc1 [Compound 227] ?
[A] High

[Q] Please let me know in which category the item COc1ccc(Cn2cc(Br)c(C)c(NC(=O)[C@H](Cc3ccc(C(C)(C)C(=O)O)cc3)NC(=O)Cc3ccc4ccccc4c3)c2=O)cc1 [Compound 220] belongs.
[A] High

[Q] Sort COc1ccc(Cn2ccc(C)c(NC(=O)[C@H](Cc3ccc(C(C)(C)C(=O)O)cc3)NC(=O)Cc3ccc(Br)cc3)c2=O)cc1 [Compound 110] into one of the categories.
[A] High

[Q] Please indicate the class for COc1ccc(Cn2ccc(C)c(NC(=O)[C@H](Cc3ccc(NC(=O)C(=O)O)cc3)NC(=O)Cc3c[nH]c4ccc(O)cc34)c2=O)cc1 [Compound 27] based on its pKd.
[A] Mid

[Q] Which bin should I file COc1ccc(C(C)n2ccc(C)c(NC(=O)[C@H](Cc3ccc(CC(=O)O)cc3)NC(C)=O)c2=O)cc1 (stereo partly shown) [Compound 81] under?
[A] Low

[Q] Which of the defined bands does the recorded pKd of COc1ccc(Cn2ccc(C)c(NC(=O)[C@H](Cc3ccc(C(C)(C)C(=O)O)cc3)NC(=O)Cc3c[nH]c4ccccc34)c2=O)cc1 [Compound 98] sit within?
[A] High
